System: SF-295
assay.notes: Growth inhibition of human SF-295 cells assessed as cell growth at 10 uM incubated for 48 hrs by sulforhodamine B assay relative to control
Assay type: functional
assay.context: read-out: Activity

{"smiles.repr": "CC(=O)Nc1cc(CO[Si](C)(C)C(C)(C)C)cc(NC(=O)c2ccc(C(=O)Nc3cccc(NC(=O)CCCN(C)C)c3)cc2)c1", "unit.spec": "%", "growth at 10 µM": 95}
{"smiles.repr": "CC(=O)Nc1cc(CO)cc(NC(=O)c2cccc(NC(=O)CCCN3CCOCC3)c2)c1", "unit.spec": "%", "growth at 10 µM": 120}
{"smiles.repr": "CC(=O)Nc1cc(CO)cc(NC(=O)c2ccc(C(=O)Nc3cc(CO)cc(NC(C)=O)c3)cc2)c1", "unit.spec": "%", "growth at 10 µM": 96.8}
{"smiles.repr": "CC(=O)Nc1cc(CO)cc(NC(=O)c2ccccc2)c1", "unit.spec": "%", "growth at 10 µM": 108}
{"smiles.repr": "CCN(CC)CC(=O)Nc1cccc(C(=O)Nc2cc(CO)cc(NC(C)=O)c2)c1", "unit.spec": "%", "growth at 10 µM": 87}
{"smiles.repr": "CC(=O)Nc1cc(CCl)cc(NC(=O)c2ccc(C(=O)Nc3cccc(NC(=O)CCCN(C)C)c3)cc2)c1", "unit.spec": "%", "growth at 10 µM": 66}
{"smiles.repr": "CCN(CC)CC(=O)Nc1ccc(C(=O)Nc2cc(CO)cc(NC(C)=O)c2)cc1", "unit.spec": "%", "growth at 10 µM": 136}
{"smiles.repr": "CC(=O)Nc1cc(CCl)cc(NC(=O)c2ccc(C(=O)NCCCN(C)C)cc2)c1", "unit.spec": "%", "growth at 10 µM": 97.6}
{"smiles.repr": "CC(=O)Nc1cc(CO)cc(NC(=O)c2ccc(NC(=O)CCCN3CCOCC3)cc2)c1", "unit.spec": "%", "growth at 10 µM": 150}

* * *

Tested on: Hs-578T
assay.notes: Growth inhibition of human Hs-578T cells assessed as cell growth at 10 uM incubated for 48 hrs by sulforhodamine B assay relative to control
Assay type: functional
assay.context: read-out: Activity
endpoint: growth at 10 µM

{"smiles.repr": "CC(=O)Nc1cc(CO)cc(NC(=O)c2ccc(NC(=O)CCCN3CCOCC3)cc2)c1", "experimental.target": "Hs-578T", "endpoint": "growth at 10 µM", "measured.result": "114%"}
{"smiles.repr": "CC(=O)Nc1cc(CO)cc(NC(=O)c2ccc(C(=O)Nc3cc(CO)cc(NC(C)=O)c3)cc2)c1", "experimental.target": "Hs-578T", "endpoint": "growth at 10 µM", "measured.result": "101%"}
{"smiles.repr": "CC(=O)Nc1cc(CCl)cc(NC(=O)c2ccc(C(=O)NCCCN(C)C)cc2)c1", "experimental.target": "Hs-578T", "endpoint": "growth at 10 µM", "measured.result": "111%"}
{"smiles.repr": "CC(=O)Nc1cc(CCl)cc(NC(=O)c2ccc(C(=O)Nc3cccc(NC(=O)CCCN(C)C)c3)cc2)c1", "experimental.target": "Hs-578T", "endpoint": "growth at 10 µM", "measured.result": "111%"}
{"smiles.repr": "CC(=O)Nc1ccc(C(=O)Nc2cc(CO)cc(NC(C)=O)c2)cc1", "experimental.target": "Hs-578T", "endpoint": "growth at 10 µM", "measured.result": "121%"}
{"smiles.repr": "CC(=O)Nc1cc(CO)cc(NC(=O)c2ccccc2)c1", "experimental.target": "Hs-578T", "endpoint": "growth at 10 µM", "measured.result": "105%"}

* * *

Test system: SW-620
assay.notes: Growth inhibition of human SW-620 cells assessed as cell growth at 10 uM incubated for 48 hrs by sulforhodamine B assay relative to control
Type: functional
assay.context: read-out: Activity
Reported values of growth at 10 µM for individual entries

{"smiles.repr": "CC(=O)Nc1cc(CO[Si](C)(C)C(C)(C)C)cc(NC(=O)c2ccc(C(=O)Nc3cccc(NC(=O)CCCN(C)C)c3)cc2)c1", "unit.spec": "%", "growth at 10 µM": 99}
{"smiles.repr": "CC(=O)Nc1cc(CO)cc(NC(=O)c2cccc(NC(=O)CCCN3CCOCC3)c2)c1", "unit.spec": "%", "growth at 10 µM": 108}
{"smiles.repr": "CC(=O)Nc1cc(CO)cc(NC(=O)c2ccc(NC(=O)CCCN3CCOCC3)cc2)c1", "unit.spec": "%", "growth at 10 µM": 103}
{"smiles.repr": "CC(=O)Nc1cc(CO)cc(NC(=O)c2ccccc2)c1", "unit.spec": "%", "growth at 10 µM": 106}
{"smiles.repr": "CC(=O)Nc1cc(CCl)cc(NC(=O)c2ccc(C(=O)Nc3cccc(NC(=O)CCCN(C)C)c3)cc2)c1", "unit.spec": "%", "growth at 10 µM": 107}
{"smiles.repr": "CC(=O)Nc1cc(CCl)cc(NC(=O)c2ccc(C(=O)NCCCN(C)C)cc2)c1", "unit.spec": "%", "growth at 10 µM": 108}
{"smiles.repr": "CCN(CC)CC(=O)Nc1ccc(C(=O)Nc2cc(CO)cc(NC(C)=O)c2)cc1", "unit.spec": "%", "growth at 10 µM": 109}
{"smiles.repr": "CC(=O)Nc1cc(CO)cc(NC(=O)c2ccc(C(=O)Nc3cc(CO)cc(NC(C)=O)c3)cc2)c1", "unit.spec": "%", "growth at 10 µM": 114}

* * *

Reported values of growth at 10 µM for individual entries
System: HOP-62
assay.notes: Growth inhibition of human HOP-62 cells assessed as cell growth at 10 uM incubated for 48 hrs by sulforhodamine B assay relative to control
Type: functional
assay.context: read-out: Activity

{"smiles.repr": "CC(=O)Nc1cc(CO)cc(NC(=O)c2ccc(NC(=O)CCCN3CCOCC3)cc2)c1", "growth at 10 µM / %": 101}
{"smiles.repr": "CC(=O)Nc1cc(CO[Si](C)(C)C(C)(C)C)cc(NC(=O)c2ccc(C(=O)Nc3cccc(NC(=O)CCCN(C)C)c3)cc2)c1", "growth at 10 µM / %": 92}
{"smiles.repr": "CC(=O)Nc1cc(CO)cc(NC(=O)c2ccc(C(=O)NCCCN3CCOCC3)cc2)c1", "growth at 10 µM / %": 105}

* * *

System: SK-MEL-28
assay.notes: Growth inhibition of human SK-MEL-28 cells assessed as cell growth at 10 uM incubated for 48 hrs by sulforhodamine B assay relative to control
Assay type: functional
assay.context: read-out: Activity
endpoint: growth at 10 µM (%)

{"smiles.repr": "CC(=O)Nc1cc(CO)cc(NC(=O)c2ccc(C(=O)Nc3cccc(NC(=O)CCCN(C)C)c3)cc2)c1", "measured.result": 85.3}
{"smiles.repr": "CC(=O)Nc1cc(CO)cc(NC(=O)c2ccc(C(=O)Nc3cc(CO)cc(NC(C)=O)c3)cc2)c1", "measured.result": 117}
{"smiles.repr": "CC(=O)Nc1cc(CO)cc(NC(=O)c2cccc(NC(=O)CCCN3CCOCC3)c2)c1", "measured.result": 115}

* * *

Reported values of growth at 10 µM for individual entries
Tested on: HCT-116
assay.notes: Growth inhibition of human HCT-116 cells assessed as cell growth at 10 uM incubated for 48 hrs by sulforhodamine B assay relative to control
Assay type: functional
assay.context: read-out: Activity

{"smiles.repr": "CC(=O)Nc1cc(CCl)cc(NC(=O)c2ccc(C(=O)Nc3cccc(NC(=O)CCCN(C)C)c3)cc2)c1", "growth at 10 µM (%)": 106}
{"smiles.repr": "CC(=O)Nc1cc(CO)cc(NC(=O)c2ccc(C(=O)NCCCN(C)C)cc2)c1", "growth at 10 µM (%)": 104}
{"smiles.repr": "CC(=O)Nc1cc(CO)cc(NC(=O)c2ccc(C(=O)Nc3cccc(NC(=O)CCCN(C)C)c3)cc2)c1", "growth at 10 µM (%)": 79}
{"smiles.repr": "CC(=O)Nc1cc(CO[Si](C)(C)C(C)(C)C)cc(NC(=O)c2ccc(C(=O)Nc3cccc(NC(=O)CCCN(C)C)c3)cc2)c1", "growth at 10 µM (%)": 99}
